System: A498
Assay: NCI tumour cell line growth inhibition, 48 h
The source made the active and inactive calls. Cut-off read from the data, not from the text of the source: active = GI50 up to about 1.1 µM and inactive = higher.
property-measured: GI50

compound | system-name | value-observed
CCCCCCCCCCCC(=O)OC(COC(N)=O)COc1ccc(Cl)cc1 (stereo not drawn) | A498 | 65.9 µM (inactive)
CC1=C2C(=O)NN=C2CCN1c1ccc(Br)cc1 | A498 | 68.7 µM (inactive)
[O-][S+](C(c1ccccc1)=P(c1ccccc1)(c1ccccc1)c1ccccc1)c1ccc(Cl)cc1 (stereo not drawn) | A498 | 11.1 µM (inactive)
CO/C=C(/C(=O)OC)c1ccccc1[C@H]1C[C@@H]1c1ccccc1 | A498 | 27.9 µM (inactive)
O=C1NC2(CCCC2)C2CCCCC12O (stereo not drawn) | A498 | > 100 µM (inactive)
Cc1cc(C)nc(NS(=O)(=O)c2ccc(Nc3c4ccccc4nc4ccc(C(=O)Nc5ccc(S(N)(=O)=O)cc5)cc34)cc2)n1 | A498 | > 100 µM (inactive)
CN(Cc1cc(Br)cc(Br)c1O)Cc1c(O)ccc2ccccc12 | A498 | 20 µM (inactive)
CC1OC(OC2C(O)COC(OC3C(C)OC(OC4C(OC(=O)[C@]56CCC(C)(C)C[C@@H]5C5=CCC7[C@@]8(C)C[C@H](O)[C@H](OC9OC(CO)C(O)C(OC%10OC(CO)C(O)C(O)C%10O)C9O)[C@@](C)(CO)[C@@H]8CC[C@@]7(C)[C@]5(C)CC6)OCC(O)C4O)C(O)C3O)C2O)C(O)C(O)C1O (stereo partly drawn) | A498 | 11.8 µM (inactive)
COC1=CC(=O)C(O)=C(CC2(C)C(C)CCC3(C)C2CCCC3(C)C)C1=O (stereo not drawn) | A498 | 10.1 µM (inactive)
CN(C)C(=O)OCOC(=O)N(C)C | A498 | > 100 µM (inactive)
C[C@H](CCC(=O)O)[C@H]1CC[C@@]2(C)[C@@H]3C(=O)C[C@H]4C(C)(C)[C@@H](O)CC[C@]4(C)[C@H]3C(=O)C[C@]12C | A498 | > 100 µM (inactive)
[O-][n+]1c2c([n+]([O-])c3ccccc31)-c1cccc3cccc-2c13 | A498 | > 100 µM (inactive)
CN1C(c2ccccc2)CC(=NOCc2ccccc2)CC1c1ccccc1 (stereo not drawn) | A498 | 44.7 µM (inactive)
Oc1cc(-c2ccccc2)cn2c1nc1ccccc12 | A498 | 11 µM (inactive)
Cc1ccc(S(=O)(=O)N(/N=C(\N)Oc2ccc(Cl)cc2)C(=N)Oc2ccc(Cl)cc2)cc1 | A498 | > 100 µM (inactive)
Cc1nc([N+](=O)[O-])cn1-c1nc2ccccn2c1[N+](=O)[O-] | A498 | > 100 µM (inactive)
O=S(=O)(O)C(O)/C=C/c1ccccc1 (stereo not drawn) | A498 | > 100 µM (inactive)
CCOC(=O)C(NC(=O)c1cccc(Cl)c1)(N1CCN(c2cc3c(cc2F)c(=O)c(C(=O)O)cn3CC)CC1)C(F)(F)F (stereo not drawn) | A498 | 20.7 µM (inactive)

###

System: MDA-MB-231
Assay: NCI tumour cell line growth inhibition, 48 h
The source made the active and inactive calls. Cut-off read from the data, not from the text of the source: active = GI50 up to about 1.1 µM and inactive = higher.
Outcome codes: TRUE = active, FALSE = inactive

compound | system-name | classification
COc1c(Br)cc2c(c1OC)C(Br)CCC(Br)(Br)C2=O (centres undefined) | MDA-MB-231 | FALSE
Cc1c(S(=O)(=O)c2ccccc2)c(N)n(Cc2ccccc2)c1C | MDA-MB-231 | FALSE
CC(CN(C)C)C(=O)/C=C/c1ccc(Cl)c(Cl)c1 (centres undefined) | MDA-MB-231 | FALSE
CCn1c2c(c3c(C(=O)OC)c(O)ccc31)C(=O)c1ccccc1C2=O | MDA-MB-231 | FALSE
O=c1c2ccccc2sc2nc(CCl)nn12 | MDA-MB-231 | FALSE
Oc1cc(-c2ccccc2)cn2c1nc1ccccc12 | MDA-MB-231 | TRUE
CC1(C)CN=C(Nc2ccc(Cl)cc2)S1 | MDA-MB-231 | FALSE
O=C(O)c1nc2ccccc2nc1NCc1ccc(F)cc1 | MDA-MB-231 | FALSE
O=C1NC(N2CCOCC2)=N/C1=C\c1ccco1 | MDA-MB-231 | FALSE
CC1=C(C)SC(=C2Sc3c(n(C)c(=O)[nH]c3=O)S2)S1 | MDA-MB-231 | FALSE
CNC(=S)N(C1CCCCC1)C1CCCCC1 | MDA-MB-231 | FALSE
O=C1/C(=C/Cc2ccco2)N=C(c2ccccc2)N1c1nc2c(Cl)cc(Cl)cc2s1 | MDA-MB-231 | FALSE
CC(C)(C)c1cc(O)ccc1O | MDA-MB-231 | FALSE
CC1C(C#N)(C#N)C(C#N)=C(N)C1(C)[N+](=O)[O-] (centres undefined) | MDA-MB-231 | FALSE
N#Cc1nc(-c2ccccn2)c(-c2ccccn2)nc1C#N | MDA-MB-231 | FALSE
O=C(O)CC(NC(=O)/C(=C/c1ccccc1)NC(=O)c1ccccc1)C(=O)O (centres undefined) | MDA-MB-231 | FALSE
CNC(=O)CNC(=O)CCC(=O)N(C)C | MDA-MB-231 | FALSE
CN(C)CCCNc1cc(O)c2c(c1O)C(=O)c1ccccc1C2=O | MDA-MB-231 | FALSE
CN(Cc1cc(Br)cc(Br)c1O)Cc1c(O)ccc2ccccc12 | MDA-MB-231 | FALSE
NS(=O)(=O)c1nnc(NS(=O)(=O)c2ccc(F)cc2)s1 | MDA-MB-231 | FALSE
Cc1nc([N+](=O)[O-])cn1-c1nc2ccccn2c1[N+](=O)[O-] | MDA-MB-231 | FALSE
OCCNC1c2cc(Cl)ccc2-c2c(Cl)cc(Cl)cc21 (centres undefined) | MDA-MB-231 | FALSE
Nc1ccn([C@H]2CO[C@@H](CO)[C@@H]2O)c(=O)n1 | MDA-MB-231 | FALSE
CO/C=C(/C(=O)OC)c1ccccc1[C@H]1C[C@@H]1c1ccccc1 | MDA-MB-231 | FALSE

###

Tested on: ACHN
Experiment: NCI tumour cell line growth inhibition, 48 h
Calls of active or inactive are those of the source. Cut-off read from the data, not from the text of the source: active = GI50 up to about 1.1 µM and inactive = higher.
property-measured: GI50

compound | property-measured | value-observed
Oc1cn(-c2ccc(Cl)cc2)nc1-c1n[nH]c(=S)n1-c1ccccc1 | GI50 | 18.8 µM (inactive)
Cc1nn2c(C(=O)N/N=C/c3ccc([N+](=O)[O-])cc3)c(C)nc2s1 | GI50 | 50 µM (inactive)
O=c1[nH]c(=O)n(C2COC(CO)C2O)cc1F (stereo not given) | GI50 | 38.5 µM (inactive)
CCCCCCCCCCCCCCCC(=O)Nc1ccn(C2CCC(COP(=O)(O)OCC3OC(n4cc(F)c(=O)[nH]c4=O)CC3OC(C)=O)O2)c(=O)n1 (stereo not given) | GI50 | 3.14 µM (inactive)
COC(=O)C(C(=O)C(=O)Nc1c(C)cccc1C)c1cnc2ccccc2n1 (stereo not given) | GI50 | > 100 µM (inactive)

###

Tested on: HCT-15
Experiment: NCI tumour cell line growth inhibition, 48 h

compound | GI50
O=C(COC(=O)c1cccc2c(=O)c3ccccc3[nH]c12)Nc1ccc(S(=O)(=O)Nc2ncccn2)cc1 | > 100 µM
Cc1cc(N(CCCl)CCCl)ccc1/C=N/NC(=O)Cc1cc(=O)oc2cc(O)ccc12 | 14.4 µM
Nn1c(Cc2ccc([N+](=O)[O-])cc2)n[nH]c1=O | > 100 µM
CC1(Br)C(=O)NC(=O)N(C2CC(N=[N+]=[N-])C(CO)O2)C1N=[N+]=[N-] (stereo not given) | > 100 µM
COc1cc(C2C(Cl)C(=O)N2n2cnc3ccccc3c2=O)ccc1O (stereo not given) | 87.3 µM

###

Test system: HOP-62
Experiment: NCI tumour cell line growth inhibition, 48 h
Active and inactive are the calls of the source. No stated cut-off is given here; in the data, active = GI50 up to about 1.1 µM and inactive = higher.

compound | GI50
C#CCN(Cc1ccc2nc(-c3ccccc3)c(N)nc2c1)c1cc(OC)c(OC)c(OC)c1 | 39.2 µM (inactive)
c1cc(N(CCn2cccn2)CCn2cccn2)cc(N(CCn2cccn2)CCn2cccn2)c1 | > 100 µM (inactive)
Cc1ccc(/N=N/c2ccc(N)cc2C)c(S(N)(=O)=O)c1 | > 100 µM (inactive)
O=C(O)C12C3CCC(CC3)C1(C(=O)O)C1CCC2C1 (stereo not given) | > 100 µM (inactive)
Fc1cc(C2=C[C@H](c3ccc4c(c3)OCO4)NC(=S)N2)c(Cl)cc1Cl | 39.5 µM (inactive)

###

Tested on: SF-539
Assay: NCI tumour cell line growth inhibition, 48 h
Activity calls are given as the source filed them. Cut-off read from the data, not from the text of the source: active = GI50 up to about 1.1 µM and inactive = higher.

molecule | GI50
C[C@]12CC[C@H]3[C@@H](CCC4=CC(=O)CC[C@@]43C)[C@@H]1CC[C@@H]2C(=O)Nc1ccc([N+](=O)[O-])c(C(F)(F)F)c1 | 18.7 µM (inactive)
O=Nc1c(-c2c(O)[nH]c3ccccc23)[nH]c2ccccc12 [INDIRUBIN-3-MONOXIME] | 20 µM (inactive)
Cc1c(Cl)ccc2c1NC(=O)C2(O)CC(=O)c1cccc2ccccc12 (centres undefined) | > 100 µM (inactive)
CCOC(=O)C(=O)C(=O)NN(C)C1=NCCN1 | > 100 µM (inactive)
CC1(C)CC(N2CCN(C3CC(C)(C)NC(C)(C)C3)CC2)CC(C)(C)N1 | > 100 µM (inactive)
CC1(C)CC(O)C(C)(C)[C@@H](O)C1 (some centres undefined) | > 100 µM (inactive)
CC1OC(OC2C(O)COC(OC3C(C)OC(OC4C(OC(=O)[C@]56CCC(C)(C)C[C@@H]5C5=CCC7[C@@]8(C)C[C@H](O)[C@H](OC9OC(CO)C(O)C(OC%10OC(CO)C(O)C(O)C%10O)C9O)[C@@](C)(CO)[C@@H]8CC[C@@]7(C)[C@]5(C)CC6)OCC(O)C4O)C(O)C3O)C2O)C(O)C(O)C1O (some centres undefined) | 18.4 µM (inactive)
CC(=O)[C@]1(C)[C@H](C)O[C@](C)(CO)[C@H]1O[Si](C)(C)c1ccccc1 | > 100 µM (inactive)
Nc1ccn([C@H]2CO[C@@H](CO)[C@@H]2O)c(=O)n1 | > 100 µM (inactive)
Cc1cccc(C(C)(C)C)c1NC(=O)C(=O)C(C(=O)/C=C\c1ccccc1)C1OC(=O)c2ccccc21 (centres undefined) | > 100 µM (inactive)
O=C1CCC(c2ccccc2)C(O)(C(=O)O)C1 (centres undefined) | > 100 µM (inactive)
COC1CCC(O)C(CO)O1 (centres undefined) | 41.2 µM (inactive)
O=C(/C=C/c1ccc(Cl)c(Cl)c1)c1ccccc1Cl | 3.63 µM (inactive)
O=C(O)c1ccccc1/C=C1\Cc2ccccc2C1=O | > 100 µM (inactive)
CC(=O)/C(=C\c1cccc([N+](=O)[O-])c1)C(=O)Nc1ccccc1C | > 100 µM (inactive)
COc1cc2c(cc1OC)CN1CCc3ccccc3CC1C2 (centres undefined) | 34.4 µM (inactive)
CC(CN(C)C)C(=O)/C=C/c1ccc(Cl)c(Cl)c1 (centres undefined) | 1.46 µM (inactive)
Cc1ccc(-c2cc(-c3ccco3)c(C#N)c(=O)n2C2OC(OC(=O)c3ccccc3)C(OC(=O)c3ccccc3)C2OC(=O)c2ccccc2)cc1 (centres undefined) | > 100 µM (inactive)
CN(/N=C/c1ccc(Cl)c(Cl)c1)C1=NCCCCN1 | 29.3 µM (inactive)

Source listed as ChEMBL document CHEMBL1201862.
